TESTED TARGET: monoclonal antibody mAB 198
ASSAY OVERVIEW: peptide microarray, fluorescence, cyclic peptide
Where no end group is shown, it is not given here.
For each of the binders below, state its relative signal [%].
Numbers only, in %.

Please review the following examples before continuing.
- BINDER: "RFNPADY (also: cyclic peptide, ring type and places not given here) [RFNPADY, cyclic mimotope]"
  UOM: "%"
  relative signal [%]: 37.5
- BINDER: "RLLWNPADY (also: cyclic peptide, ring type and places not given here)"
  UOM: "%"
  relative signal [%]: 9.7
- BINDER: "RTNPADY (also: cyclic peptide, ring type and places not given here) [RTNPADY, cyclic mimotope]"
  UOM: "%"
  relative signal [%]: 14.6
- BINDER: "LRWNPADYP (also: cyclic peptide, mode of cyclisation not given here)"
  UOM: "%"
  relative signal [%]: 13.1
- BINDER: "LRWNPADYPGI (also: cyclic peptide, mode of cyclisation not given here)"
  UOM: "%"
  relative signal [%]: 8.9

Hey, can you go through the list below and give me relative signal [%] for every item?
1. RLRLNPADY (also: cyclic peptide, ring type and places not given here)
2. GSLRINPADYG (also: cyclic peptide, mode of cyclisation not given here)
3. RANPADY (also: cyclic peptide, ring type and places not given here) [RANPADY, cyclic mimotope]

Ans:
1: 37.3; 2: 12.1; 3: 12.2

# credit: patent US20230381328A1
